Biological target: acetylcholine receptor
Assay: SPR, AchR immobilised on CM5 chip, peptide 10 uM
Threshold check on Binding affinity (RU): at or above 30 RU gives fulfilled, strictly below gives not fulfilled.

>>> category("RFKARK [6mer-2-650]")
"not fulfilled"
>>> category("KMWKRK [6mer-2-749]")
"not fulfilled"
>>> category("RRKSHK [6mer-1-978]")
"fulfilled"
>>> category("RAWVKK [6mer-2-708]")
"not fulfilled"
>>> category("RYAFRR [6mer-2-630]")
"not fulfilled"
>>> category("KRPPGK [6mer-1-934]")
"fulfilled"
>>> category("KPTWRK [6mer-2-732]")
"not fulfilled"
>>> category("RAAPRR [6mer-2-646]")
"fulfilled"
>>> category("KECGRR [6mer-2-711]")
"not fulfilled"
>>> category("RKHERK [6mer-2-657]")
"fulfilled"
>>> category("KTMNRK [6mer-2-781]")
"not fulfilled"
>>> category("KASWKK [6mer-2-731]")
"not fulfilled"
>>> category("RRMMVR [6mer-1-942]")
"fulfilled"
>>> category("KRIEFR [6mer-1-1040]")
"not fulfilled"
>>> category("KIDDRK [6mer-2-672]")
"not fulfilled"
>>> category("KITIRK [6mer-2-780]")
"fulfilled"
>>> category("RRCMAK [6mer-1-1029]")
"fulfilled"
